The following variants are shown together with reported protein stability index values.
B1: PKD2L1 (parent)
chain: TLARCAKDILGFAVMFFIVFFAYA

variants of: B1; assay: protein stability index of a GFP-peptide fusion (GPS, HEK-293T) (PSI 1-6); higher = more stable; settings: c terminus: a fixed tail appended;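 note: lentivirally expressed fusions sorted by FACS into six bins by GFP to DsRed ratio, PSI derived from sequencing read proportions per bin multiplied by bin number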
measured-metric: protein stability index

{"sequence-text": "TLARIAKDILGFAVMFFIVFFAYA", "recorded-result": 3}
{"sequence-text": "TLARCAKDILGFFVMFFIVFFAYA", "recorded-result": 2.92}
{"sequence-text": "TLARCAKDILGFAEMFFIVFFAYA", "recorded-result": 2.48}
{"sequence-text": "TLARCAKDILGFKVMFFIVFFAYA", "recorded-result": 3.14}
{"sequence-text": "TLARCAKDILGFAVPFFIVFFAYA", "recorded-result": 2.62}
{"sequence-text": "TLARGAKDILGFAVMFFIVFFAYA", "recorded-result": 2.59}
{"sequence-text": "TLARCAKDILGFAVMFFIVFFLYA", "recorded-result": 2.14}
{"sequence-text": "TLARCAKDILGFAVMFFIWFFAYA", "recorded-result": 3}
{"sequence-text": "TLARCAKVILGFAVMFFIVFFAYA", "recorded-result": 2.33}
{"sequence-text": "TLARCAKDILGFAVMFFITFFAYA", "recorded-result": 2.69}
{"sequence-text": "TLARCAKDISGFAVMFFIVFFAYA", "recorded-result": 1.84}
{"sequence-text": "TLARCAKDILGFAVMFVIVFFAYA", "recorded-result": 2.44}
{"sequence-text": "TLARCAKDILGFAVMFFSVFFAYA", "recorded-result": 1.72}
{"sequence-text": "TLARCAKDILGFAVDFFIVFFAYA", "recorded-result": 2.89}
{"sequence-text": "TLARCAKDILGFAVMFFIVAFAYA", "recorded-result": 1.99}
